Reference source: patent US4977273A

# Test system: Chinese hamster V-79 cells
# assay.text: Radiosensitization effect on cells (ER in vitro)
# Assay type: cell-based
# setup.conditions: 1.0 mM, 60 min at 37° C., nitrogen (hypoxic), X-ray 1.6 Gy/min
ER in vitro overview
// keep it numeric: no unit symbol after the value

O=C(CCNC(=O)C(F)(F)Cn1ccnc1[N+](=O)[O-])NCCO: 1.43

Query block: Entry under review: O=[N+]([O-])c1nccn1CC(F)COCC(O)CO (stereo not drawn) . Reported ER in vitro?
Result block: 1.49

Query block: Entry under review: NC(=O)CNC(=O)C(F)(F)Cn1ccnc1[N+](=O)[O-] . Reported ER in vitro?
Result block: 1.61

Query block: Entry under review: NC(=O)C(F)(F)COCC(F)(F)Cn1ccnc1[N+](=O)[O-] . Reported ER in vitro?
Result block: 1.58

Query block: Entry under review: COCC(O)Cn1ccnc1[N+](=O)[O-] (stereo not drawn) . Reported ER in vitro?
Result block: 1.50

Query block: Entry under review: NC(=O)C(F)(F)Cn1ccnc1[N+](=O)[O-] . Reported ER in vitro?
Result block: 1.48

Query block: Entry under review: O=[N+]([O-])c1nccn1CC(F)COCCO (stereo not drawn) . Reported ER in vitro?
Result block: 1.66

Query block: Entry under review: O=C(COCC(F)(F)Cn1ccnc1[N+](=O)[O-])NCCO . Reported ER in vitro?
Result block: 1.54

Query block: Entry under review: O=C(COCC(F)(F)Cn1ccnc1[N+](=O)[O-])NO . Reported ER in vitro?
Result block: 1.68

Query block: Entry under review: NC(=O)C(F)(F)CNC(=O)C(F)(F)Cn1ccnc1[N+](=O)[O-] . Reported ER in vitro?
Result block: 1.76

Query block: Entry under review: NC(=O)CCNC(=O)C(F)(F)Cn1ccnc1[N+](=O)[O-] . Reported ER in vitro?
Result block: 1.46

Query block: Entry under review: O=C(NCCO)C(F)(F)COCC(F)(F)Cn1ccnc1[N+](=O)[O-] . Reported ER in vitro?
Result block: 1.63

###

# assay.text: in vivo
# setup.conditions: mouse, female ICR mice of 5 weeks
property: LD50

Illustrative cases are given below, each with its answer.
O=C(CCNC(=O)C(F)(F)Cn1ccnc1[N+](=O)[O-])NCCO: > 2000 mg/kg
O=C(COCC(F)(F)Cn1ccnc1[N+](=O)[O-])NCCO: > 2000 mg/kg
NC(=O)CCNC(=O)C(F)(F)Cn1ccnc1[N+](=O)[O-]: 2800 mg/kg

Okay, now this molecule:
Query block: Entry under review: NC(=O)C(F)(F)CNC(=O)C(F)(F)Cn1ccnc1[N+](=O)[O-] . Reported LD50?
Result block: 2600 mg/kg

###

# assay.text: in vivo
# setup.conditions: mouse, female ICR mice of 5 weeks
LD50 overview
Provide the reading as a plain figure in mg/kg.

Illustrative cases are given below, each with its answer.
NC(=O)C(F)(F)Cn1ccnc1[N+](=O)[O-]: 1100
O=[N+]([O-])c1nccn1CC(F)COCC(O)CO (centres unmarked): 2700

Okay, now this compound:
Query block: Entry under review: NC(=O)CNC(=O)C(F)(F)Cn1ccnc1[N+](=O)[O-] . Reported LD50?
Result block: 2200

###

# System: EMT-6 tumor cells
# assay.text: Radiosensitization effect on tumor transplanted in animal (ER in vivo)
# Design: species or system male Bal/c mouse
# setup.conditions: EMT-6 tumor in mouse, 100 mg/kg intraperitoneal, X-ray after 40 minutes at 450 rad/min. for 5 minutes
ER in vivo overview
// keep it numeric: no unit symbol after the value

Illustrative cases are given below, each with its answer.
NC(=O)CCNC(=O)C(F)(F)Cn1ccnc1[N+](=O)[O-] [(22)]: 1.58
NC(=O)C(F)(F)Cn1ccnc1[N+](=O)[O-] [(28)]: 1.32
O=[N+]([O-])c1nccn1CC(F)COCCO (stereo not shown) [(11)]: 1.52
NC(=O)C(F)(F)COCC(F)(F)Cn1ccnc1[N+](=O)[O-] [(46)]: 1.45
COCC(O)Cn1ccnc1[N+](=O)[O-] (stereo not shown) [Comparative (1)]: 1.43

Query block: Entry under review: NC(=O)C(F)(F)CNC(=O)C(F)(F)Cn1ccnc1[N+](=O)[O-] [(24)] . Reported ER in vivo?
Result block: 1.41

Query block: Entry under review: O=C(NCCO)C(F)(F)COCC(F)(F)Cn1ccnc1[N+](=O)[O-] [(45)] . Reported ER in vivo?
Result block: 1.40

###

# System: EMT-6 tumor cells
# assay.text: Radiosensitization effect on tumor transplanted in animal (ER in vivo)
# Design: species or system male Bal/c mouse
# setup.conditions: EMT-6 tumor in mouse, 100 mg/kg intraperitoneal, X-ray after 40 minutes at 450 rad/min. for 5 minutes
ER in vivo overview
// keep it numeric: no unit symbol after the value

O=C(COCC(F)(F)Cn1ccnc1[N+](=O)[O-])NO [(44)]: 1.48
O=[N+]([O-])c1nccn1CC(F)COCC(O)CO (centres unmarked) [(1)]: 1.38
O=C(CCNC(=O)C(F)(F)Cn1ccnc1[N+](=O)[O-])NCCO [(47)]: 1.38

Query block: Entry under review: NC(=O)CNC(=O)C(F)(F)Cn1ccnc1[N+](=O)[O-] [(48)] . Reported ER in vivo?
Result block: 1.49

Query block: Entry under review: O=C(COCC(F)(F)Cn1ccnc1[N+](=O)[O-])NCCO [(43)] . Reported ER in vivo?
Result block: 1.38
